- studyTarget: CaSR (Rattus norvegicus)
- Construct: expressed in transfected cells; host or cells: CHO (Chinese hamster ovary) cells, CHO(CaSR)
- Sequence (P48442 20-1079): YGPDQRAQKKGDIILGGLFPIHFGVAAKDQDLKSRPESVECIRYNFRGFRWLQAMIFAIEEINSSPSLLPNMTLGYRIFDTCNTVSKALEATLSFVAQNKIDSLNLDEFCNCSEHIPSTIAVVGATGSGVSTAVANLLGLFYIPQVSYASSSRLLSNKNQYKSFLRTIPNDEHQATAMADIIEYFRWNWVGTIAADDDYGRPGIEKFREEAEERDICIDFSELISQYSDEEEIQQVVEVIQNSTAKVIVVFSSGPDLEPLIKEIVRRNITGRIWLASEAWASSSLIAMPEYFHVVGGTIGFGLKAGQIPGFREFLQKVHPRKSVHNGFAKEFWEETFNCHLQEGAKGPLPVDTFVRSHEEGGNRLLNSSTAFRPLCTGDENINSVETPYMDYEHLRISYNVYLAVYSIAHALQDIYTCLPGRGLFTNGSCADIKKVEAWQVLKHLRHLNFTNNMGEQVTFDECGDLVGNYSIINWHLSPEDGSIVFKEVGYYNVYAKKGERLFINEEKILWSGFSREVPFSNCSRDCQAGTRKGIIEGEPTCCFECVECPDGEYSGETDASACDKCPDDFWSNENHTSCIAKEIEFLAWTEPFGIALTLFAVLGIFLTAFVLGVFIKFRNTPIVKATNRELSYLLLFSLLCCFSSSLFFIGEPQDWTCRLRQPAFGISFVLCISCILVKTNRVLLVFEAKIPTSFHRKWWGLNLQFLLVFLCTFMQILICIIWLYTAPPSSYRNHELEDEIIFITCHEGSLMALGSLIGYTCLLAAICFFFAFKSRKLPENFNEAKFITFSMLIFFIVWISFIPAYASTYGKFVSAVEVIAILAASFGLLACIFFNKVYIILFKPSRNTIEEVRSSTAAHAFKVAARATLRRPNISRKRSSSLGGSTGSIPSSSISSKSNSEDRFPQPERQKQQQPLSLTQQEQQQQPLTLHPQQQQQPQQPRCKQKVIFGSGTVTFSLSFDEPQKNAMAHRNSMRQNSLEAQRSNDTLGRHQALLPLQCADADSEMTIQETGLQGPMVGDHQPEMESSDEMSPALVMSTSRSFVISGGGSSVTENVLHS
- assayProtocol: Accumulation of tritiated inositol phosphates in CHO(CaSR) cells
- Type: cell-based
- conditionLabel: compound 1 μM
readoutName: activity greater than that of calcium (10 mM) (%)
Record the value in %, omitting the unit from your answer.

In the examples that follow, each entry is paired with its recorded activity greater than that of calcium (10 mM).
Q) // lookup activity greater than that of calcium (10 mM) for CC(NCc1cc2ccccc2[nH]1)c1cccc2ccccc12.Cl.Cl (stereo not shown)
A) 50

Q) // lookup activity greater than that of calcium (10 mM) for "COc1cccc([C@@H](C)NCc2cc3ccccc3[nH]2)c1"
A) 50

The record that follows has no activity greater than that of calcium (10 mM) shown yet.
Q) // lookup activity greater than that of calcium (10 mM) for "C[C@@H](NCc1cc2ccccc2[nH]1)c1cccc2ccccc12.Cl.Cl"
A) 50
